B1: glmS ribozyme (parent)
chain: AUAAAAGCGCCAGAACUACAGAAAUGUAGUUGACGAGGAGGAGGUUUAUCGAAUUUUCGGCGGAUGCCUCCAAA

Variants of: B1
procedure-details: kcat; higher = faster cleavage; RNA array
reported-conditions: with glucosamine-6-phosphate
This sample holds only a part of the variants without activity.
# reported kcat; entries follow

G13C U45A    0.000315 s⁻¹
G66U C70U    0.00205 s⁻¹
U47A C68U    0.00394 s⁻¹
U46G A48U    0.00014 s⁻¹
C11A C67U    4.14e-05 s⁻¹
A6U C16U C68U    9.14e-05 s⁻¹
G44A C67G    0.000462 s⁻¹
U55G C70G    0.000127 s⁻¹
U46G C67G    0.000343 s⁻¹
A15C U55C    0.00633 s⁻¹

Here's the next entry for you.
input: Check the records and state kcat for G38U A48C A52C C71A
output: < 1e-05 s⁻¹

Recorded values, source the supplement of paper PMC7125110.
